target: native mouse MET on living cells (mouse, UniProt P16056 25-1379); experiment: cell-based or functional assay
Measured scatter score 0-4, MLP29, 0.037 nM values are reported for all entries that follow.
The reply should be a number in score, with the unit left off.

| Binder | Endpoint Label | Endpoint Unit | Recorded Number |
| --- | --- | --- | --- |
| 71D6 chimeric llama-human IgG1 mAb (antibody, V domains shown, llama VH on human IgG1 CH1-CH2-CH3, llama VL on human lambda CL) VH: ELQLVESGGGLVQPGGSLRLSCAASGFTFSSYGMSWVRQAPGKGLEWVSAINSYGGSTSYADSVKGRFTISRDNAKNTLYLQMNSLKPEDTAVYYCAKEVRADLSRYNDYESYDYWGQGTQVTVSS VL: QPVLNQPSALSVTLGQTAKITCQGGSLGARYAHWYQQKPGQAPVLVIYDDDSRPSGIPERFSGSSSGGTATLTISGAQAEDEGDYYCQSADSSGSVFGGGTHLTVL | scatter score 0-4, MLP29, 0.037 nM | score | 3 |
| 72F8 chimeric llama-human IgG1 mAb (antibody, V domains shown, llama VH on human IgG1 CH1-CH2-CH3, llama VL on human lambda CL) VH: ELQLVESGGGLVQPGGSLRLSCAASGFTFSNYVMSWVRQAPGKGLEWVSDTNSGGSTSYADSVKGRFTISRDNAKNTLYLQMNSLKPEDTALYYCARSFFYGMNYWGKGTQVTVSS VL: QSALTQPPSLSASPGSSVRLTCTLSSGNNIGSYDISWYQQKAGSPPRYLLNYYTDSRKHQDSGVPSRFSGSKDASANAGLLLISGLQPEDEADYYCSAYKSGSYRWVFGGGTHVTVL | scatter score 0-4, MLP29, 0.037 nM | score | 0 |

// switching to the query binder
Given the entry 76H10 chimeric llama-human IgG1 mAb (antibody, V domains shown, llama VH on human IgG1 CH1-CH2-CH3, llama VL on human lambda CL) VH: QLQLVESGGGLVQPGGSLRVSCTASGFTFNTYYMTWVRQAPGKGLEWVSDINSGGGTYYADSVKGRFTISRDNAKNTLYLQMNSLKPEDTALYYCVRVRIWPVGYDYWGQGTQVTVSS VL: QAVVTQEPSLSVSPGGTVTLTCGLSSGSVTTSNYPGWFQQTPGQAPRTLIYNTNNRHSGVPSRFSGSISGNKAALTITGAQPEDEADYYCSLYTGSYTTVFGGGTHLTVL , report its measured scatter score 0-4, MLP29, 0.037 nM. 0
